conditions: buffer; pH 7.4; 200.0 µM
Here, each record is paired with measured solubility kinetic data.
measure: solubility kinetic (µg/mL)

| compound | relation | recorded_measurement |
| --- | --- | --- |
| CCOC(=O)c1sc(NC(=O)CC)c(C#N)c1C | = | 1.4 |
| CCn1c(=O)c(C(=O)NCc2ccccc2)c(O)c2ccccc21 | < | 0.3 |
| O=C(OCc1ccc(Cl)c(Cl)c1)c1cccnc1Cl | < | 0.7 |
| O=C1CS/C(=C/C(=O)c2cccc(Cl)c2)N1 | = | 10.5 |
| CCN(CC)S(=O)(=O)c1ccc(Cl)nc1 | = | 34.3 |
| COc1ccc(C(=O)Nc2cc3c4c(c2)CC(=O)N4CCC3)cc1 | > | 48.4 |
| Cc1ccc(C(O)(CNCc2ccccc2)c2ccccc2)cc1 (centres undefined) | = | 26.2 |
| OCCC1CN(CCCc2ccccc2)CCN1Cc1ccccc1 (centres undefined) | > | 50.8 |
| O=S(=O)(c1ccccc1)N1CCN(c2cccc(Cl)c2)CC1 | = | 3.8 |
